- measurement.target: human SGLT1 (Homo sapiens)
- Construct: expressed in transfected cells
- Sequence (P13866 whole entry): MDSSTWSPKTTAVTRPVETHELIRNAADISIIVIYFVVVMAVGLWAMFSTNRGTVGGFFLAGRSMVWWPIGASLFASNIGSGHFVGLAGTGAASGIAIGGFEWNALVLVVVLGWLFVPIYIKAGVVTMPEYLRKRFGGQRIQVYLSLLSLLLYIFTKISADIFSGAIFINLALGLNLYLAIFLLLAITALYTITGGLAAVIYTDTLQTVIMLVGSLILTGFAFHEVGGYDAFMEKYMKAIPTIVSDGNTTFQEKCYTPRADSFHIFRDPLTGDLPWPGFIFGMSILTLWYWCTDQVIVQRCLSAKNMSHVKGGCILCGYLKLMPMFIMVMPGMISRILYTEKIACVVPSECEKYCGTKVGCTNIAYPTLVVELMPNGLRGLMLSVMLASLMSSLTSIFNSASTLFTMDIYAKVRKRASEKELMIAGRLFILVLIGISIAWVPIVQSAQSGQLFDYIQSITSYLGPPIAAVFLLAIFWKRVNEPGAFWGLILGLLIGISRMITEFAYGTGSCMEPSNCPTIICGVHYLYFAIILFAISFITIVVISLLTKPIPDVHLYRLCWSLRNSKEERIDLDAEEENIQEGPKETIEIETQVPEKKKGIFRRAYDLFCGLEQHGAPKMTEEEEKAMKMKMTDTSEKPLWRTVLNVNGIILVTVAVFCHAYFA
- assay.name: SGLT1 assay: Na-dependent 14C-AMG uptake in CHO-K1 cells stably expressing human SGLT1
- Assay type: cell-based
- measurement.parameters: average if tested more than once
pIC50: recorded values
In simple prose, pIC50 is minus the logarithm base ten of a concentration in moles per litre.

Reference set (2 entries):
Cc1c(Cc2cc3ccccc3s2)cc([C@@H]2O[C@H](CO)[C@@H](F)[C@H](O)[C@H]2O)c(O)c1C
7.82
CCc1cc(O)c([C@@H]2O[C@H](CO)[C@@H](F)[C@H](O)[C@H]2O)cc1Cc1cc2c(s1)CCN(C#N)C2
7.30

Now consider the entry below.
Provide one value: measured pIC50 of Cc1cc(CO)c([C@@H]2O[C@H](CO)[C@@H](F)[C@H](O)[C@H]2O)cc1Cc1cc2ccccc2s1 7.01

====

- measurement.target: human SGLT2 (Homo sapiens)
- Construct: expressed in transfected cells
- Sequence (P31639 1-672): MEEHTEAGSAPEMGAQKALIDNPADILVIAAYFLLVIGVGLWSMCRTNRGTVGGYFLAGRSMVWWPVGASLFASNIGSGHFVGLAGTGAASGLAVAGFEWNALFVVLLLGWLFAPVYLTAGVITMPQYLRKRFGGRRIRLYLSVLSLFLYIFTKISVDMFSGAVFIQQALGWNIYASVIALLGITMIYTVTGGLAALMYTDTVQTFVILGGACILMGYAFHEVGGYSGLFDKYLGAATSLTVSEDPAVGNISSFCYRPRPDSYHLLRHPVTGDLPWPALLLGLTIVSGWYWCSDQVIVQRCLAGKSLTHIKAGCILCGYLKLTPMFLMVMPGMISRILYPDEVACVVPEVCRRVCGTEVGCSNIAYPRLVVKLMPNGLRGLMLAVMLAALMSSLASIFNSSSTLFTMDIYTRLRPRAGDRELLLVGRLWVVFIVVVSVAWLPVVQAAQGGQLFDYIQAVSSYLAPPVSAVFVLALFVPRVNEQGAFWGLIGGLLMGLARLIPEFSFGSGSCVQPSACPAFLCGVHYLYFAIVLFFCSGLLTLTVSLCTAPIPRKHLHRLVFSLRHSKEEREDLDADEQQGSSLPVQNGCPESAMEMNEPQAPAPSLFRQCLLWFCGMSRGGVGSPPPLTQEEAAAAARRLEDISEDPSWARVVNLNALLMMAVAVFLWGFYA
- assay.name: SGLT2 assay: Na-dependent 14C-AMG uptake in CHO-K1 cells stably expressing human SGLT2
- Assay type: cell-based
- measurement.parameters: @ 0.3 μM
readout: SGLT2 %-inhibition (% @ 0.3 μM)
Report the value in % @ 0.3 μM with no unit label.

Reference set (2 entries):
Cc1ccc([C@@H]2O[C@H](CO)[C@@H](F)[C@H](O)[C@H]2O)cc1Cc1cc2c(s1)CCN(C(=O)N1CCCC1)C2
86.9
O=C1COc2cc(Cc3cc([C@@H]4O[C@H](CO)[C@@H](F)[C@H](O)[C@H]4O)cc4c3OCC4)ccc2N1
67.9

Now consider the entry below.
Provide one value: measured SGLT2 %-inhibition of CCc1cc(OC)c([C@@H]2O[C@H](CO)[C@@H](F)[C@H](O)[C@H]2O)cc1Cc1cc2c(s1)CCN(C#N)C2 79.3
